FYI, the data here is from ChEMBL document CHEMBL1201862.

Form field: GI50 (one value per entry).
# Tested on: HCC 2998
# protocolNotes: NCI tumour cell line growth inhibition, 48 h
Active and inactive are the calls of the source. No stated cut-off is given here; in the data, active = GI50 up to about 1.1 µM and inactive = higher. Peptide text beside a SMILES is read from it. * marks the point of attachment. Cbz = O=C(OCc1ccccc1)*; OBn = c1ccc(CO*)cc1
quantity: GI50

1) CNC(=O)OCc1nc(SSc2nc(COC(=O)NC)c(COC(=O)NC)n2C)n(C)c1COC(=O)NC = > 100 µM (inactive)
2) C/N=C(\N)N/N=C(\C)c1ccc2oc3ccc(/C(C)=N/N/C(N)=N/C)cc3c2c1 = 2 µM (inactive)
3) Nc1ncnc2sc(Nc3ccccc3)nc12 = > 100 µM (inactive)
4) N#CI1OC(=O)c2ccccc21 = > 100 µM (inactive)
5) CCOc1cc(NC(C)=O)ccc1C(=O)NN1C(=O)CSC1c1ccccc1 (stereo not drawn) = > 100 µM (inactive)
6) CN1CCN(Cn2nc(COc3ccc(Cl)cc3)n(/N=C/c3ccc(-c4ccc(Cl)cc4Cl)o3)c2=S)CC1 = 3.18 µM (inactive)
7) CCOC(=O)C(=O)/C(=C\NC(=S)Nc1ccccc1Cl)C(=O)OCC = > 100 µM (inactive)
8) Oc1cccc(-c2cc(O)c3cc4c(cc3n2)OCO4)c1 = 4.28 µM (inactive)
9) Cc1ccccc1CN1CC=c2ccccc2=N1 = > 100 µM (inactive)
10) CC1=C(NC(=O)/C(=N/NC(=S)NN)C2C(=O)CC(C)(C)CC2=O)C(=O)c2ccccc2C1=O = 10.8 µM (inactive)
11) O=C1NC(=O)C(Cc2ccccc2)(c2cccnc2)N1 (stereo not drawn) = > 100 µM (inactive)
12) COC(=O)CNC(=O)C(C)NC(=O)C(CC(=O)OCc1ccccc1)NC(=O)OCc1ccccc1 (stereo not drawn) (Cbz-Asp(OBn)-Ala-Gly-OMe; configuration not given here) = 32.9 µM (inactive)
13) Cc1cc(OP2(=O)NCc3ncccc3O2)ccc1Cl (stereo not drawn) = 40.6 µM (inactive)
14) CCOC(=O)C1=C(O)C(=O)c2c(OC)ccc(OC)c2C1=O = > 100 µM (inactive)
15) Brc1ccccc1/C=C\C1(c2ccccc2)OCCO1 = 15.7 µM (inactive)
16) COc1ccc(N2CCOCC2)cc1 = > 100 µM (inactive)
17) CSc1ncc2c(C#N)c3n(C)c4ccccc4n3c(=O)c2n1 = > 100 µM (inactive)
18) CCN(Cc1cc(Cl)cc(C)c1O)Cc1c(O)ccc2ccccc12 = 16.8 µM (inactive)
19) Oc1cccc(Nc2cc(O)nc(O)n2)c1 = > 100 µM (inactive)
20) N#C/C(=C\c1ccccc1)C(NO)Nc1ccccc1 (stereo not drawn) = > 100 µM (inactive)
21) CSc1cc(Cl)c(C(=O)Nc2ccccc2)cc1S(=O)(=O)n1ccnc1O = > 100 µM (inactive)
22) Oc1cc(-c2ccccc2)nc2cc3c(cc12)OCO3 = 15.6 µM (inactive)
23) COc1ccc(-c2cc(=O)c3ccc(O)cc3o2)c(OC)c1OC = 48.8 µM (inactive)

* * *

# System: SF-295
# protocolNotes: NCI tumour cell line growth inhibition, 48 h
Counter-ions that a name gives are not always drawn. The source made the active and inactive calls. Cut-off read from the data, not from the text of the source: active = GI50 up to about 1.1 µM and inactive = higher.
Form field: GI50 (one value per entry).
quantity: GI50

1. CC1(C)C2CC(=O)C1(C)C(O)C2Br (stereo not given) = > 100 µM (inactive)
2. Cc1csc2nc(-c3ccc(Cl)c([N+](=O)[O-])c3)c(/C=N/NC(=N)N)n12 = 1.4 µM (inactive)
3. COC(=O)CC1C(COC(C)=O)OC(n2cc(C)c(=O)[nH]c2=O)C1OC(C)=O (stereo not given) = > 100 µM (inactive)
4. NNC(=O)CCC(=O)Nc1cc(Cl)c(Cl)cc1Cl = > 100 µM (inactive)
5. CCOC(=O)C(=O)/C(=C\NC(=S)Nc1ccccc1Cl)C(=O)OCC = > 100 µM (inactive)
6. CC(C)(C)N1C(=O)c2ccccc2C1(O)C(F)(F)F (stereo not given) = > 100 µM (inactive)
7. Cc1n[nH]c(=O)n1/N=C/c1ccc([N+](=O)[O-])cc1 = > 100 µM (inactive)
8. N#C/C(=C\c1ccccc1)C(NO)Nc1ccccc1 (stereo not given) = > 100 µM (inactive)
9. O=C1C=CC(=CC=C2C=CN(CCCCCCCCCCC(=O)NCCCCCCCCCCCC(=O)O)C=C2)C=C1 = > 100 µM (inactive)
10. CN(C)C(CN)CC1=C(CC(CN)N(C)C)CCC1 (stereo not given) = > 100 µM (inactive)
11. O=c1[nH]cc(F)c(=O)[nH]1 = 51.9 µM (inactive)
12. CC1C=C(NCC2(CO)CCC2)N=C(N)N1 (stereo not given) = > 100 µM (inactive)
13. COC(=O)/C=C1/CCC(C)(C(=O)NS(=O)(=O)c2ccc(C)cc2)C1(C)C (stereo not given) = > 100 µM (inactive)
14. CCCCCCCCCCCC(=O)C1=C(O)CC(O)CC1=O (stereo not given) = 84.1 µM (inactive)
15. CCOC(=O)Cc1csc(N/C=C2/C(=O)Oc3ccccc3C2=O)n1 = 20.9 µM (inactive)
16. CC(C)CCOC(=O)NC(Nc1ccc(F)cc1)(C(F)(F)F)C(F)(F)F = > 100 µM (inactive)
17. C[N+](C)(C)C(C1=CCCC1=O)c1ccccc1 (stereo not given) = > 100 µM (inactive)
18. C/C(CCc1ccccc1)=N\NC(N)=S = > 100 µM (inactive)
19. CC1=NN(c2ccccc2)C(=O)/C1=C\c1ccc([N+](=O)[O-])cc1 = 31.1 µM (inactive)
20. O=c1[nH]ncc2[nH]c3c(c12)CCc1ccccc1-3 = 37.8 µM (inactive)
21. CN1CCN(Cn2nc(COc3ccc(Cl)cc3)n(/N=C/c3ccc(-c4ccc(Cl)cc4Cl)o3)c2=S)CC1 = 13.4 µM (inactive)
22. Oc1ccc(-c2c3ccccc3c(-c3ccc(O)cc3)c3ccccc23)cc1 = 84.1 µM (inactive)
23. CC(C(N)C(=O)NC(C(=O)O)C1OC(n2ccc(=O)[nH]c2=O)C(O)C1O)C(O)c1ccc(O)cn1 (stereo not given) = > 100 µM (inactive)
24. Cc1ccc([N+](=O)[O-])cc1S(=O)(=O)Nc1ccc(C2=NNC(c3ccccc3)C2)cc1 (stereo not given) = 3.02 µM (inactive)
25. COC(=O)[C@@H]1[C@H]2CC[C@]3(C)[C@@H](OC(C)=O)CC[C@H]3[C@@H]2CC[C@H]1C(C)=O = > 100 µM (inactive)
26. CC(=O)c1c2c(cc3c1CC1(C3)Cc3cc4c(c(C(C)=O)c3C1)CCC4)CCC2 = > 100 µM (inactive)
27. Cc1cc(C(=O)CCCCOc2ccc(C3=NCCO3)cc2)c(C)n1C = 34.4 µM (inactive)
28. NCCCNCCCCNCCCN [SPERMINE TETRAHYDROCHLORIDE] = > 100 µM (inactive)
29. O=C(O)c1ccc2c(c1C(=O)O)C(=O)OC2(c1ccc(O)cc1)c1ccc(O)cc1 = > 100 µM (inactive)
30. Oc1cccc(Nc2cc(O)nc(O)n2)c1 = > 100 µM (inactive)
